assayed.system: full-length beta-Catenin (Uniprot ID P35222) (Homo sapiens, UniProt P35222)
Construct: 10 nM full-length beta-Catenin (Uniprot ID P35222)
Sequence (P35222 whole entry): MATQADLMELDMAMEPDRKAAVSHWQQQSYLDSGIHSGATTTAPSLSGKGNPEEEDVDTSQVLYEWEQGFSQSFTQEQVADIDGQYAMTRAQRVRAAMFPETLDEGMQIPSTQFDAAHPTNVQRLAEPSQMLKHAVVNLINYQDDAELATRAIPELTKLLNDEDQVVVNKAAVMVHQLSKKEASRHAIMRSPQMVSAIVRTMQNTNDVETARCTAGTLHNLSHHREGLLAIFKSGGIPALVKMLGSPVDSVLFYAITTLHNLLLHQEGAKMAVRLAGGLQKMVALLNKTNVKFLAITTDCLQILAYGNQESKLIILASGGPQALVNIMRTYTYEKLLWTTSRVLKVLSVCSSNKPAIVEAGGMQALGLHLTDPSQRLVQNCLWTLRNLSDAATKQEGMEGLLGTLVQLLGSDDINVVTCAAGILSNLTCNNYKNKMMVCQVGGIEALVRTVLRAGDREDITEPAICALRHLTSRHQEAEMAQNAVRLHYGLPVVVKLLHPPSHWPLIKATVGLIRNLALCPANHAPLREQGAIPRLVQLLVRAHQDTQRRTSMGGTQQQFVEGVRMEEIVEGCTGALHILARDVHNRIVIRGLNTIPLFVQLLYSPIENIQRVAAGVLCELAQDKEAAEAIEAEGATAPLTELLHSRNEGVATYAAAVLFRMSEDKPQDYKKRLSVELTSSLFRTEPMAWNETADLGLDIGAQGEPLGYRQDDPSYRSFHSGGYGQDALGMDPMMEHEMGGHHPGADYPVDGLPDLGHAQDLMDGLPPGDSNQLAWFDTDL
protocol.description: Fluorescence polarization IC50 (beta-catenin / 5FAM-TCF4 10-53 competition)
Type: binding
test.context: read-out: FP EC50
Here the recorded IC50 is given for each entry.
Respond with the bare value in nM.

Check out these entries, answers already filled in.
CC(=O)N1CCC[C@]12CC=CCCCC1(CCCC=CCCCCCC[C@@](C)(C(=O)N[C@@H](Cc3ccsc3)C(=O)N[C@@H](Cc3csc4ccccc34)C(N)=O)NC(=O)[C@H](CC(N)=O)NC(=O)[C@H](Cc3ccccc3)NC(=O)[C@H](C)NC(=O)[C@H](C)NC(=O)[C@H](CCC(=O)O)NC(=O)[C@H](CC(=O)O)NC1=O)NC(=O)[C@H](CC(C)C)NC(=O)[C@H](CC(=O)O)NC2=O (some centres unmarked) [I-717]    39
CC[C@H](C)[C@@H]1NC(=O)[C@H](CC(=O)O)NC(=O)[C@]2(CC=CCCCC3(CCCC=CCCCCCC[C@@](C)(C(=O)N[C@@H](Cc4ccccc4)C(=O)N[C@@H](Cc4csc5ccccc45)C(=O)N[C@@H](CCC(N)=O)C(N)=O)NC(=O)[C@H](CC(N)=O)NC(=O)[C@H](Cc4ccccc4)NC(=O)[C@H](C)NC(=O)[C@H](C)NC(=O)[C@H](CC(=O)O)NC(=O)[C@H](CC(=O)O)NC3=O)NC1=O)CCCN2C(C)=O (some centres unmarked) [I-468]    27
CC[C@H](C)[C@@H]1NC(=O)[C@H](CC(=O)O)NC(=O)[C@]2(CC=CCCCC3(CCCC=CCCCCCC[C@@](C)(C(=O)N[C@@H](Cc4ccccc4)C(=O)N[C@@H](Cc4csc5ccccc45)C(=O)N[C@@H](CCC(N)=O)C(N)=O)NC(=O)[C@H](CCC(N)=O)NC(=O)[C@H](Cc4ccccc4)NC(=O)[C@H](C)NC(=O)[C@H](CCCCNC(=O)CN=[N+]=[N-])NC(=O)[C@H](CCC(=O)O)NC(=O)[C@H](CC(=O)O)NC3=O)NC1=O)CCCN2C(C)=O (some centres unmarked) [I-591]    64
CC[C@@H](C)[C@@H](NC(=O)[C@H](CCC(N)=O)NC(=O)[C@H](Cc1csc2ccccc12)NC(=O)[C@H](Cc1ccccc1)NC(=O)[C@]1(C)CCCCCCC=CCCCC2(CCCC=CC[C@]3(CCCN3C(C)=O)C(=O)N[C@@H](CC(=O)O)C(=O)N[C@@H](CC(C)C)C(=O)N2)C(=O)N[C@@H](CC(=O)O)C(=O)N[C@@H](CCC(=O)O)C(=O)N[C@@H](C)C(=O)N[C@@H](C)C(=O)N[C@@H](Cc2ccccc2)C(=O)N[C@@H](CC(N)=O)C(=O)N1)C(N)=O (some centres unmarked) [I-735]    246

# input for lookup
(Q) Given CC[C@H](C)[C@@H]1NC(=O)[C@H](CC(=O)O)NC(=O)[C@]2(CC=CCCCC3(CCCC=CCCCCCC[C@@](C)(C(=O)N[C@@H](Cc4ccccc4)C(=O)N[C@@H](Cc4csc5ccccc45)C(=O)N[C@@H](CCC(N)=O)C(N)=O)NC(=O)[C@H](CCC(N)=O)NC(=O)[C@H](Cc4ccccc4)NC(=O)[C@H](C)NC(=O)[C@H](C)NC(=O)[C@H](CCCNC(=N)N)NC(=O)[C@H](CC(=O)O)NC3=O)NC1=O)CCCN2C(C)=O (some centres unmarked) [I-614] , respond with its IC50.
(A) 1140
